System: OVCAR-4 ovarian
method: NCI tumour cell line growth inhibition, 48 h
Where a SMILES comes first, the peptide text is derived from it. [ ]: non-standard residue; d: D form. NMeY = CN[C@@H](Cc1ccc(O)cc1)C(=O)O; dNMeF = CN[C@H](Cc1ccccc1)C(=O)O; Sar = CNCC(=O)O
Listed here: items and their measured TGI.
// return numeric value only (unit: µM, not printed)

Look over these answered cases.
O=c1oc2ccc(Cl)cc2c(=O)n1-c1cc(C(F)(F)F)cc(C(F)(F)F)c1; 29.2
CO[C@@H]1C=C[C@@]23c4cc5c(cc4C(O)N(CC2O)C3C1)OCO5 (some centres not stated); 19.4
CN(C)CC/C(=N\Nc1ccc(Cl)c(Cl)c1)c1ccccc1; 5.01

// next item, TGI requested
Problem: Fill blank: measured TGI of the molecule CC[C@H](C)[C@@H]1NC(=O)[C@H](Cc2ccc(O)cc2)N(C)C(=O)[C@H](Cc2ccccc2)NC(=O)CN(C)C(=O)[C@@H]2CCCN2C(=O)[C@@H](Cc2ccccc2)N(C)C(=O)[C@H](CC(C)C)NC1=O (cyclo(F[NMeY]IL[dNMeF]P[Sar])) is ____.
Result: 3.99

----------
Tested on: MOLT-4 leukemia
method: NCI tumour cell line growth inhibition, 48 h
Listed here: items and their measured TGI.
// return numeric value only (unit: µM, not printed)

Look over these answered cases.
COc1ccc2nc(NC(=O)C(=O)C(C(=O)c3ccccc3-c3ccccc3)C3OC(=O)c4ccccc43)sc2c1 (stereo unspecified); 89.5
CC1(C)CC(OCCCC[P+](c2ccccc2)(c2ccccc2)c2ccccc2)CC(C)(C)N1O; 4.12

// next item, TGI requested
Problem: Fill blank: measured TGI of the molecule CC(=O)OC1CCC2(C)C(CCC3C4CC=C(C(C)=O)C4(C)OC(=O)CC32)C1 (stereo unspecified) is ____.
Result: 6.41

----------
System: BT-549 breast
method: NCI tumour cell line growth inhibition, 48 h; in the data active means GI50 below about 0.43 µM; inactive means the rest
Where a SMILES comes first, the peptide text is derived from it. [ ]: non-standard residue; d: D form. NMeY = CN[C@@H](Cc1ccc(O)cc1)C(=O)O; dNMeF = CN[C@H](Cc1ccccc1)C(=O)O; Sar = CNCC(=O)O
Choose the fitting class; nothing outside true (1) = active, false (0) = inactive is accepted.

COc1ccc2[nH]c(=O)c(/C=C/C(=O)/C=C/c3ccc(O)c(OC)c3)cc2c1; false (0)
Nc1ccn(C2CC(O)C(CO)O2)c(=O)n1 (centres undefined); false (0)
CC[C@H](C)[C@@H]1NC(=O)[C@H](Cc2ccc(O)cc2)N(C)C(=O)[C@H](Cc2ccccc2)NC(=O)CN(C)C(=O)[C@@H]2CCCN2C(=O)[C@@H](Cc2ccccc2)N(C)C(=O)[C@H](CC(C)C)NC1=O (cyclo(F[NMeY]IL[dNMeF]P[Sar])); true (1)

Please turn your attention to the following entry.
Problem: # lookup: test call for "N#Cc1cccc(/C=C(/C(=O)c2ccccc2)c2ccccc2)c1"
Result: false (0)

----------
Listed here: items and their measured TGI.
Test system: MCF7 breast
method: NCI tumour cell line growth inhibition, 48 h

Look over these answered cases.
O=C1/C(=C/c2ccccc2)N=C(c2ccccc2)N1C1Nc2cc3c(cc2S1)NC(N1C(=O)/C(=C/c2ccccc2)N=C1c1ccccc1)S3 (centres undefined); > 100 µM
CCOC(=O)NC; > 100 µM
C/C1=C\[C@H](C)C[C@H](C)OC(=O)C[C@H](c2ccc(O)cc2)NC(=O)[C@H](Cc2ccc(O)c(Br)c2)N(C)C(=O)[C@H](C)NC(=O)[C@@H](C)C1; > 25 µM
CC1(O)CC23CC1CCC2(C)C12CCCC(C)(C(=O)O1)C2CC3O (centres undefined); > 100 µM
COc1ccc(/C=C/C(=O)c2ccc3cc(OC)c(OC)cc3c2)cc1OC; 12.1 µM

// next item, TGI requested
Problem: Fill blank: measured TGI of the compound CCOC(=O)CCC(NC(=O)c1ccc(Nc2nc3ccccc3n3cccc23)cc1)C(=O)OCC (centres undefined) is ____.
Result: > 100 µM

----------
Test system: HT29 colon
method: NCI tumour cell line growth inhibition, 48 h
Listed here: items and their measured log10(TGI).
Could you please treat all values as log10 of TGI in µM?

Look over these answered cases.
CCC[CH2][Sn]([CH2]CCC)([O]C(=O)c1cc(OC)c(OC)cc1OC)[O]C(=O)c1cc(OC)c(OC)cc1OC; 0.67
Cc1ccc(S(=O)(=O)SCc2ccccc2CSS(=O)(=O)c2ccc(C)cc2)cc1; 1.72

// next item, log10(TGI) requested
Problem: Fill blank: measured log10(TGI) of the molecule "Cn1c(Sc2ccc(-c3cccnc3)n2C)ccc1-c1cccnc1" is ____.
Result: 1.74

----------
Tested on: HOP-62 NSCLC
method: NCI tumour cell line growth inhibition, 48 h
Listed here: items and their measured TGI.

Look over these answered cases.
CCC[CH2][Sn]([CH2]CCC)([O]C(=O)c1cc(OC)c(OC)cc1OC)[O]C(=O)c1cc(OC)c(OC)cc1OC; 4.41 µM
CC(C)Oc1ccc(CNC2=NCCO2)c2ccccc12; 30.8 µM
C/C=C/C(C#N)(Cc1ccccc1)OP1(=O)OC(c2ccccc2)C(C)N1C (stereo not given); > 100 µM

// next item, TGI requested
Problem: Fill blank: measured TGI of the compound "Cc1ccccc1-c1c(N)nc(N)nc1C(=O)Nc1nccs1" is ____.
Result: > 100 µM

----------
Tested on: MALME-3M melanoma
method: NCI tumour cell line growth inhibition, 48 h
recorded_metric: TGI (µM)
// return numeric value only (unit: µM, not printed)

Look over these answered cases.
S=C(N/N=C(/c1ccccc1)c1ccccn1)Nc1ccc(Cl)cc1; 10.6
CCC[CH2][Ge]([CH2]CCC)([CH2]CCC)[O]C(=O)C(O)c1ccccc1 (stereo not given); 18
COc1ccc2nc(NC(=O)C(=O)C(C(=O)c3ccccc3-c3ccccc3)C3OC(=O)c4ccccc43)sc2c1 (stereo not given); 27.6

Problem: Fill blank: measured TGI of the molecule "O=C(NNc1ccccc1)OCc1ccccc1" is ____.
Result: 96.6

Problem: Fill blank: measured TGI of the molecule "COC(=O)c1ccc2c(c1)C(=O)c1c-2n(CCCN)c(=O)c2cc([N+](=O)[O-])ccc12" is ____.
Result: 1.36

Problem: Fill blank: measured TGI of the molecule "CN(C)CCCNc1ccnc2cc([N+](=O)[O-])ccc12" is ____.
Result: 11.4

----------
Listed here: items and their measured log10 TGI.
Tested on: OVCAR-3 ovarian
method: NCI tumour cell line growth inhibition, 48 h
Could you please treat all values as log10 of TGI in µM?

Look over these answered cases.
CCC[CH2][Sn]([CH2]CCC)([O]C(=O)c1cc(OC)c(OC)cc1OC)[O]C(=O)c1cc(OC)c(OC)cc1OC; 0.46
COc1ccc(/C=C/C(=O)c2ccc3cc(OC)c(OC)cc3c2)cc1OC; 1.13
CCCCCCCCCC1C(C)c2c([nH]c3ccccc23)C2C(=O)N(c3ccccc3)C(=O)C21 (centres undefined); 1.03
COc1cc([C@@H]2c3cc4c(cc3[C@@H](NCc3ccccc3)C3COC(=O)[C@@H]32)OCO4)cc(OC)c1O (some centres undefined); 1.63
COc1ccccc1N1C(=O)CS(=O)(=O)C1c1cccc(Oc2ccccc2)c1 (centres undefined); 1.61
CCOC(=O)CCC(C(=O)OCC)n1nnc2ccc(Nc3c(C)[n+]([O-])c4cc(Cl)ccc4[n+]3[O-])cc21 (centres undefined); 1.54

Problem: Fill blank: measured log10 TGI of the compound "C=CC(=O)N1CCC([C@@H]2CCNc3c(C(N)=O)c(-c4ccc(Oc5ccccc5)cc4)nn32)CC1" is ____.
Result: 1.51

Problem: Fill blank: measured log10 TGI of the compound "S=C=NCc1ccccc1" is ____.
Result: 1.05

----------
Tested on: NCI/ADR-RES ovarian
method: NCI tumour cell line growth inhibition, 48 h; in the data active = GI50 below about 0.43 µM; inactive = the rest
Choose the fitting class; nothing outside 1 (yes) = active, 0 (no) = inactive is accepted.

Some solved entries appear below for comparison.
CC(=O)OC1CCC2(C)C(CCC3C4CC=C(C(C)=O)C4(C)OC(=O)CC32)C1 (centres undefined); 0 (no)
CC(=O)O[C@H]1CC[C@]2(C)[C@H]3CC=C4[C@@H]5CC(C)(C)CC[C@]5(C(=O)NCCNCCN)CC[C@@]4(C)[C@]3(C)CC[C@H]2C1(C)C; 0 (no)
O=C1c2cc3c(cc2[C@@H]2[C@H]1c1ccc([N+](=O)[O-])cc1C(=O)N2CCCCl)OCO3; 1 (yes)
CO/N=C(/COc1c(-c2ccccc2)oc2ccccc2c1=O)c1ccc(OC)cc1; 0 (no)
O=Cc1ccc(Oc2c3ccccc3nc3occc23)cc1; 0 (no)
CCN(C(=O)CCl)C(C)(C)C(SSSC(c1ccc(Cl)cc1)C(C)(C)N(CC)C(=O)CCl)c1ccc(Cl)cc1 (centres undefined); 0 (no)

Problem: # lookup: test call for "COc1ccc2c(c1)sc1nc(-c3ccccc3)c(-c3ccc(O)c(OC)c3)n12"
Result: 0 (no)

Problem: # lookup: test call for "CC[C@H](C)[C@H](NC(=O)Nc1ccccc1)C(=O)N(C)[C@H](C[C@@H](OC(C)=O)c1nc(C(=O)N[C@@H](Cc2ccccc2)C[C@H](C)C(=O)OC)cs1)C(C)C"
Result: 0 (no)

Problem: # lookup: test call for "COc1ccc(/C=C/C(=O)c2ccc3cc(OC)c(OC)cc3c2)cc1OC"
Result: 0 (no)
